Test: gradient 5% acetonitrile 3 min, to 50% in 2 min, to 85% in 15 min, held 3 min, 100 µL/min
Details: column: Zorbax Extend-C18 2.1 x 50 mm; eluents: water / acetonitrile, 0.1% formic acid
measured-endpoint: RP-LC retention time (s)

[[record]]
compound = "Fc1cccc2sc(NCc3ccccn3)nc12"
number = 594

[[record]]
compound = "Cc1ccc(S(=O)(=O)CC(=O)Nc2nc(-c3ccccc3)cs2)cc1"
number = 933

[[record]]
compound = "CC(=O)N1CCCn2nc(-c3cccc(F)c3)cc2C1"
number = 722

[[record]]
compound = "CC(=O)Nc1cccc(-c2nc(-c3ccc4c(c3)oc(=O)n4C)no2)c1"
number = 819

[[record]]
compound = "COc1cccc(S(=O)(=O)N2CCC(c3noc(-c4ccccn4)n3)C2)c1 (stereo not given)"
number = 774

[[record]]
compound = "Cc1ccc(NC(=O)c2c(C)oc3nc(C)nc(N4CCOCC4)c23)c(C)c1"
number = 849

[[record]]
compound = "CCN1C(=O)C2CC3(CCN(C(=O)c4ccoc4)CC3)CN2C1=O (stereo not given)"
number = 628

[[record]]
compound = "CCCn1c(=O)sc2cc(S(=O)(=O)N3CCC(C(=O)N4CCc5ccccc5C4)CC3)ccc21"
number = 989

[[record]]
compound = "COc1ccc(NC(=O)N2CCC(c3nc(C(=O)N4CCCC4)c(C)o3)CC2)cc1"
number = 727

[[record]]
compound = "COCCn1cc(CCNC(=O)Nc2cccc(C)c2C)c2cccnc21"
number = 721


###

Test: gradient 5% acetonitrile 3 min, to 50% in 2 min, to 85% in 15 min, held 3 min, 100 µL/min
Conditions: column: Zorbax Extend-C18 2.1 x 50 mm; eluents: water / acetonitrile, 0.1% formic acid
measured-endpoint: RP-LC retention time (s)

[[record]]
compound = "CC1=C(c2ccc(C)c(C)c2)S(=O)(=O)N=C1N1CCCN(C(=O)c2cccs2)CC1"
unit_info = "s"
number = 874

[[record]]
compound = "Cc1ccccc1C(=O)Nc1ccc(C(=O)N2CCCC(N(C)C)c3ccccc32)cc1 (stereo not given)"
unit_info = "s"
number = 712

[[record]]
compound = "CC(C)CCNC(=O)c1nnc(-c2ccc(S(=O)(=O)N3CCCCC3)cc2)o1"
unit_info = "s"
number = 1030

[[record]]
compound = "Cc1cc(C)cc(N2C(=O)N(CC(=O)N3CCOc4ccc(C)cc43)C3CS(=O)(=O)CC32)c1 (stereo not given)"
unit_info = "s"
number = 962

[[record]]
compound = "CCn1ncc(NC(=O)c2cccc(OC)c2)c(N2CCOCC2)c1=O"
unit_info = "s"
number = 788

[[record]]
compound = "Cc1ccc(N2CCC(NC(=O)c3ccc(Br)o3)C2=O)cc1C (stereo not given)"
unit_info = "s"
number = 882

[[record]]
compound = "CCOC(=O)c1ccc(Nc2cc(C(=O)N3CCCCC3)nc3cc(OC)c(OC)cc23)cc1"
unit_info = "s"
number = 737

[[record]]
compound = "O=C(Cc1cccc(C(F)(F)F)c1)Nc1cccn2cnnc12"
unit_info = "s"
number = 744

[[record]]
compound = "O=C1CCc2cc(NC(=O)c3cc(-c4ccccc4)nc4ccccc34)ccc2N1"
unit_info = "s"
number = 818

[[record]]
compound = "CC1(C)C(=O)Nc2ccc(S(=O)(=O)N3CCC(c4noc(-c5cccnc5)n4)C3)cc21 (stereo not given)"
unit_info = "s"
number = 722

[[record]]
compound = "Cc1noc([C@@H]2CC(F)(F)CN2C(=O)c2cocn2)n1"
unit_info = "s"
number = 667

[[record]]
compound = "O=C(C1CCC1)N1CCC(Cc2nc(C3CC3)n[nH]2)CC1"
unit_info = "s"
number = 598

[[record]]
compound = "Cc1nnc2c(NS(=O)(=O)c3ccccc3C(F)(F)F)cccn12"
unit_info = "s"
number = 689

[[record]]
compound = "Cc1oc(C2CCN(S(=O)(=O)CCc3ccccc3)CC2)nc1C(=O)N1CCCC1"
unit_info = "s"
number = 917

[[record]]
compound = "O=C(c1ccc2c(c1)CCC(=O)N2Cc1ccccc1)N1CCN(c2ccccc2F)CC1"
unit_info = "s"
number = 967

[[record]]
compound = "Cc1nnc(NC(=O)CSc2nnc(CCc3nc4ccccc4[nH]3)o2)s1"
unit_info = "s"
number = 542

[[record]]
compound = "CCCN(C)C(=O)CCC1CCN(c2cc(NCC)ncn2)CC1"
unit_info = "s"
number = 571

[[record]]
compound = "O=C(c1ccccc1OCC1CCCN(C2CCC2)C1)N1CCCCC1 (stereo not given)"
unit_info = "s"
number = 632

[[record]]
compound = "O=C(NCc1c(F)cccc1Cl)C(=O)c1c[nH]c2ccccc12"
unit_info = "s"
number = 931

[[record]]
compound = "Cc1c(C(=O)O)nnn1-c1ccc(C(F)(F)F)cc1"
unit_info = "s"
number = 730

